assay: folding stability dG unfold (combined trypsin and chymotrypsin); higher = more stable
Output condition met for folding stability dG unfold not less than 1 kcal/mol; output condition not met otherwise.

Worked examples follow.
Input line: Does folding stability dG unfold meet or surpass 1 kcal/mol for SEKTVLSSSTSTSPTSITTTTTVKLPDGSLITTTTTYSSVTAAPTPAPGGTLVPTYSLPTTTTTTTLPPASA [r9_240_JUSTAS] ?
Output line: condition not met

Input line: In plain terms: is recorded folding stability dG unfold at least 1 kcal/mol for SAGGSAGGMVIKLPLPNDLYAEIPVYSNSDGIVTARIVLYDPSTEEKVEKPFELPFEELLDLLSSAGGSAGG [r6_858_TrMRF] ?
Output line: condition not met

Input line: Determine whether this sequence has folding stability dG unfold no lower than 1 kcal/mol: SAGGSAGGSAGGPDDWVEVYFIMVSIKPKEVKPDPNGGAEYEFEIKISIFPFWIPPDDISAGGSAGGSAGGS [r10_524_TrROS]
Output line: condition met

Input line: Decide: folding stability dG unfold of SAGGSAGGSKVLIIEPEENKELAEKIAKELKEKGELGEVEIKTFSSPEEAKEYAKNYDIVITGSAGGSAGGS [r12_679_TrMRF] >= 1 kcal/mol?
Output line: condition not met

Input line: Answer whether folding stability dG unfold of SAGGWMTWEFELEDEDGKDIKIEVEQNPGNPWWRVKIEHKGGKPIPEIPIPADSPDDAIDQARDLLKSAGGS [r16_158_TrROS] is greater than or equal to 1 kcal/mol.
Output line: condition not met

Input line: # bool: folding stability dG unfold of SAGGSAGGSAGGLVEQAVRAIREAKKAGLKEVVIYLSEEQKEAVKEAAEKEGLKVKIVPESAGGSAGGSAGG [r11_371_TrROS_Hall] >= 1 kcal/mol
Output line: condition not met

Next:
Input line: Could you verify whether the entry SAGGSAGGSAGGPENDWREVDIKIKFENPEGKPIFDIKIYYMPDGDIMIYFPNGNWIWISAGGSAGGSAGGS [r10_972_TrROS] shows folding stability dG unfold of no less than 1 kcal/mol?
Output line: condition met

Input line: Could you please find out whether SAGGAEVDPETKVVHIRIRARSAEELLAAIEALPADEVIIEVYNEETGKTERIRLSREELRKLLEEASAGGS [r16_797_TrROS_Hall] has folding stability dG unfold that meets 1 kcal/mol or exceeds it?
Output line: condition met

Input line: // inclusive: folding stability dG unfold at least 1 kcal/mol? input: SAWKIEIKEVKRNPDGWYEITITIPFPGDPNMPVDELADEILQEFGIKDVTVEPNPDNGWIEITIRIPRSAG [r14_228_TrROS]
Output line: condition met

Input line: folding stability dG unfold >= 1 kcal/mol for SAGGSAGGAIAPGEEVEAEVTIVDPLTGKETTAKVTLTVHPTSVTITLPGGKPAVVPAAYVRFGSAGGSAGG [r6_436_TrMRF] ?
Output line: condition not met

Input line: Exam item: decide whether the reported folding stability dG unfold for SAGGDPNGKWVTINIPIWIPGPPEQAEMIAESIMEELGFEITDVKVEPHPDDPNWVRIDITLTFRKKSAGGS [r8_479_TrROS] is at least 1 kcal/mol.
Output line: condition met

Input line: Say whether SAGGMSVSITVTVTPTEVRVVENPTNGVNTAFTETTVTVTVNHPSSVSPEEKAALIAAVKAANPGAASAGGS [r8_306_JUSTAS] shows folding stability dG unfold of 1 kcal/mol or more.
Output line: condition met

Input line: Is folding stability dG unfold at least 1 kcal/mol? Consider SAGGSAIWIPVDEIRDLLKEFGIDVTVERHPNDGWVEIEIKMRRPNGKKHPIKIWVHPDGYIRIEPSAGGSA [r15_1051_TrROS]
Output line: condition met

---

Known folding stability dG unfold of a selection of sequences
experiment: folding stability dG unfold from chymotrypsin proteolysis; higher = more stable
Answer format: numeric, kcal/mol implied, no suffix.

These recorded examples may help you get a feel for the data.
Input line: Could you tell me which folding stability dG unfold is on file for SAGGSAGGSAAKIELEDGTLRITLTRTVRDPATGETHTETLTLEIKLPPAPPPVVVVSPEDLSAGGSAGGSA [r18_501_TrROS_Hall] ?
Output line: 3.24

Input line: Could you share which folding stability dG unfold value was measured for SAGNFNIKEQKETDGRRVIEIPMPGSGHEITIVFERNPDGPRKININMNGPMADYLREALPGIDRVEIISAG [r5_933_TrROS] ?
Output line: 0.275

Input line: Recorded folding stability dG unfold of SAGGSPETKTISFKYPGNGMRIMVQVERDPADGKKKITINMENNPYMAERAKKALEELGLPVEIHPSAGGSA [r2_30_TrROS] , please.
Output line: 1.14

Input line: Please report the recorded folding stability dG unfold for SPYFMFPIDDIKVEKERDPDDGKKTYEMRVEGPNGNPFRIEFNPKDGMIHIEFPPGMKLRPGDTFELTIRSA [r9_509_TrROS] .
Output line: 1.59

Input line: Suppose we examine the sequence SAGGSAGGSFKAPPGEKYVLKLRSPENGQEFMVEFTPDNIKISNPNDEKMPFPPDDITDVKDVSAGGSAGGS [r20_35_TrROS] ; what folding stability dG unfold value has been reported?
Output line: 0.0465

***
Input line: Name the reported folding stability dG unfold value associated with the sequence SAGGSAMKITLKPDGTLEIELPDGVKITITRNANGEVTITITYPDGETKTFPAGMTLEQVLAELLASAGGSA [r15_371_TrROS_Hall]
Output line: 3.3

Input line: // lookup folding stability dG unfold for SAGGSAGGSAGGGSVTIRVESPEEAVATAKELLEKLTGAKPEATPLNVVVEEPDGVATVESAGGSAGGSAGG [r7_387_JUSTAS]
Output line: -0.721

Input line: Using the record for SAGGKPGEPVKIKMRGPDGQPMTFPFYAPEPVKIKMNNPGEEHEHTIPPGEPLTFPLPPGDIEVEPVSAGGS [r16_456_TrROS] , report its folding stability dG unfold.
Output line: 0.315

Input line: I am curious: what folding stability dG unfold value has been reported for SAGGSAGGSAGMRPVTSVYYDPNTGRLYARFPDGVVANYELTPDGSVRLVSVAPAHPDLDSAGGSAGGSAGG [r17_61_TrMRF] ?
Output line: 1.64

Input line: So what does the record say about folding stability dG unfold for SAGGSAMSPEEVEEKIKEIAKKLGVEIEVKVEISPEGGIKITVKVNDKFDINEIKKGIEEALGIKLSAGGSA [r15_807_JUSTAS] ?
Output line: 2.65

---

Entries and their measured folding stability dG unfold follow.
test: folding stability dG unfold from trypsin proteolysis; higher = more stable
Quick reminder: number only, in kcal/mol, skip the unit.

Some entries whose results are on file:
Input line: Fill blank: measured folding stability dG unfold of the sequence SAGGEKDLYLVKYRVEIKNDKGEKKEFPVTAIATSLEELEETLKALTPKNAEAKVEILEVKPLKEVLSSAGG [r13_513_TrMRF] is ____.
Output line: 1.86

Input line: Look up folding stability dG unfold: SMKELVKRIAERFPNFKVKIKPEKTGGKKYRTVRIENPDSGRDMEIVFTKNGDIQIEMPNGRRIPLEDILSA [r9_1176_TrROS]
Output line: 1.46

Input line: Which folding stability dG unfold is listed for SAGGDPGAEKIGTKTYPVGDKELTIETYRLPDPDELKVVVTDPTDGKTTPITVSLSEPPNIPVAELLSAGGS [r16_768_JUSTAS] ?
Output line: -0.276

Input line: # folding stability dG unfold lookup, item SAGGEFEVYRVKSPDSVVTVTVLPDRVVVNLTDEKNPKVVPIPYPPGHPPTLEDVLALLKSLGFKVEPSAGG [r13_687_TrMRF]
Output line: 1.85

Input line: Tell me the measured folding stability dG unfold of SAGGKFKIVKIEVEEKTVKVKNKDGKIEKKKVKVIKVKIYKDGKLIKEVTFKSKEDMLNALKELLKKSAGGS [r8_21_TrROS_Hall] , please.
Output line: 3.06

Input line: What does the record list as folding stability dG unfold for SAGMVTFIDTTPGKAVVAVEDPATGTSRTIELDLDSPDGRPASLEEIKKVVEELVKEERPDLTVDVKLASAG [r5_293_JUSTAS] ?
Output line: -0.506

Others:
Input line: Query: folding stability dG unfold; subject: SAGMIKIEETDGKLKVTITLKADDPEEITVEMIKEELEKLGLEVAEIKITPEPNEDGQYTVTAEIVVDVSAG [r5_922_TrMRF]
Output line: 2.99

Input line: What measured folding stability dG unfold goes with SAGMPAETETTVTITTETIDEKGNLSTKTYTATVRTLPDGRVLVYLENELLLIDPATGEVVAREPNYKPSAG [r14_821_JUSTAS] ?
Output line: 2.3

Input line: Would you kindly share the measured folding stability dG unfold for SAGGSAGGSAGGAPDLSLPDVRPRVLVRNPATGKWYEFTSLEELEREIKSGRAEVLEISSAGGSAGGSAGGS [r10_520_TrMRF] ?
Output line: 0.327

Input line: Can you share its folding stability dG unfold? I mean this sequence: SPSADAKVRVEPLPGPGYLATLEDGSLVLVHPDGTVIEVTETKVRIRVFTPDKPLLELEIEIPPPAPDEPSA [r9_901_TrMRF]
Output line: 0.803

Input line: # query: folding stability dG unfold of entry SAGGKTVVIEAESLEEALAAIEALPPDVKKVVIFNKETGVLVEVTVDPKTGEIKEIKVYKIDPEKGKLSAGG [r13_945_TrROS_Hall]
Output line: 1.22

Input line: Report folding stability dG unfold for SAGGSAGGSAGMDIDILTETEVTRYPDGTVVTTTTTRDSSGEVLSTTTTTTTVTPATPAASAGGSAGGSAGG [r11_452_JUSTAS] please.
Output line: 2.24

Input line: So what does the record say about folding stability dG unfold for SAGGSAGGSGMTTTLTTEPRPDSTVVTTTTTTPTSVTTTTTVYDPDGNVVSTTTTTTPLPATSSAGGSAGGS [r12_710_JUSTAS] ?
Output line: 1.73

Input line: Find the recorded folding stability dG unfold belonging to SAGGPKVYLTDIVTTLPDGTVVMIGEIELPDGTPLIAITTIYKDGTVKVFIYDPNGKLIAEIEIKPKPSAGG [r13_903_TrMRF] and report it.
Output line: 2.15

Input line: Dear colleague, I am looking for the recorded folding stability dG unfold of the following sequence: SAGGEFRITFMVPADPNDPAVELAKWIADEFMPPGWKVEVDIKVVPSPDGYYMIDIPVEIMPPGQPISAGGS [r16_128_TrROS]
Output line: 1.71

Input line: Using the record for SAGGSAGGDYERDPNNGKMKMKPKVEPPPPPKIIQIQIPFPEEADDFMNELQDNGYPIYLSPGGSAGGSAGG [r6_872_TrROS] , report its folding stability dG unfold.
Output line: 1.29

Input line: Param item = SAGGMLKIEVTVPAEYPEQAEEIAAEIRDLLEAGPYVKVLKVEIEPTEDTVRVTVVVEIEFDSPEELISAGG [r13_39_TrMRF] ; retrieve measured folding stability dG unfold.
Output line: 1.36

Input line: Look up folding stability dG unfold: SAGGSIEEAKKAAEKLAKEIAEKKGWTVKSVEVEKLPDGTVRATITIKYPDGSEETIEVTIPPNTPLSAGGS [r8_175_JUSTAS]
Output line: 2.63

Input line: Any idea what its folding stability dG unfold is? The sequence is SAGGSMKIKVEYEELPNGKMVIRIDIPPEENNMTPEQVETIAKEIAEEFPNVKVETTPGSIWIRVPSAGGSA [r2_256_TrROS]
Output line: 1.38

Input line: GET /values?readout=folding stability dG unfold&item= SAGGSAGGSAGGNEDDNVPIGEKTVVKKVPPSSPVTITETIYRRPSTGTTSTTEKVIIESAGGSAGGSAGGS [r10_6_JUSTAS]
Output line: -1.12

Input line: Entry under review: SAGGSAGGSAMEILSKEIIPNNDLIIIDIKVKKKNKEYIYKLIIKGDKIIKISEIEIDDAPSAGGSAGGSAG [r3_48_TrMRF] . Reported folding stability dG unfold?
Output line: 1.37
